Measured TGI, listed per entry.
- Tested on: OVCAR-8 ovarian
- Protocol Text: NCI tumour cell line growth inhibition, 48 h
Value Kind: TGI

• c1ccc2c(CNCCCN3CCN(CCCNCc4cccc5ccccc45)CC3)cccc2c1 = 4.03 µM
• CSc1nc(SC)c2cnn(-c3ccnc4cc(Cl)ccc34)c2n1 = > 100 µM
• CN(CC(=O)O)S(=O)(=O)c1ccc(Cl)cc1 = > 100 µM
• CCc1nc2c(n1CC)C(=O)c1ccccc1C2=O = > 100 µM
• CO[C@@H]1[C@H](N(C)C(=O)c2ccccc2)C[C@@H]2O[C@]1(C)n1c3ccccc3c3c4c(c5c6ccccc6n2c5c31)C(=O)NC4=O = > 100 µM
• O=C1NC(=N[C@@H]2C[C@H]2c2ccccc2)S/C1=C\c1ccc2ncccc2c1 = 9.69 µM
• COc1ccc(C(=O)/C=C/c2ccc(OCC(=O)N3CCN(c4ccccc4)CC3)cc2)cc1OC = > 10 µM
• COc1ccc(C(=O)O[C@@H]2CCN3CC[C@H](C)[C@H]23)cc1 = > 100 µM
• N#C/C(=C\c1ccc([N+](=O)[O-])cc1)n1nnc2cc(F)c(F)cc21 = 6.17 µM
